The measured values listed here are drawn from ChEMBL document CHEMBL3232942.

- measuredTarget: Neuraminidase (Influenza A virus)
- method: Inhibition of Influenza A virus (A/RI/5+/1957(H2N2)) recombinant neuraminidase using MUNANA as substrate after 30 mins
observationType: pIC50
Numbers only, as −log10 of the molar value.

| molecule | pIC50 |
| --- | --- |
| CO[C@@H]([C@@H]1OC(C(=O)O)=C[C@H](NC(=N)N)[C@H]1NC(C)=O)[C@H](O)CO | 5.51 |
| O=C(OC[C@H]1O[C@@H](OC(=O)c2cc(O)c(O)c(O)c2)[C@H](OC(=O)c2cc(O)c(O)c(O)c2)[C@@H](OC(=O)c2cc(O)c(O)c(O)c2)[C@@H]1OC(=O)c1cc(O)c(O)c(O)c1)c1cc(O)c(O)c(O)c1 | 4.92 |
| O=C(OC[C@H]1O[C@@H](O)[C@H](OC(=O)c2cc(O)c(O)c(O)c2)[C@@H](OC(=O)c2cc(O)c(O)c(O)c2)[C@@H]1OC(=O)c1cc(O)c(O)c(O)c1)c1cc(O)c(O)c(O)c1 | 5.04 |

molecule CCOC(=O)C1=C[C@@H](OC(CC)CC)[C@H](NC(C)=O)[C@@H](N)C1 [OSELTAMIVIR PHOSPHATE] , pIC50 observed: 6.10

---

- measuredTarget: Genome polyprotein (Coxsackievirus B3 (strain Nancy))
- method: Inhibition of His-6-tagged Coxsackievirus B3 3C protease expressed in Escherichia coli BL21(DE3) using Asp-Glu-EDANS-(5-((2-aminoethyl)amino)naphthalene-1-sulfonic acid)-MSAIFQGPISK-DABCYL (4-((4-(dimethylamino)phenyl)azo)benzoic acid) as peptide substrate at 100 uM by fluorescence-based […] assay
The source made the active and inactive calls. No cut-off for these calls is given here.
observationType: inhibition

Here are 5 compounds together with their reported answers.
| compound | measuredTarget | inhibition |
| --- | --- | --- |
| O=C(O[C@@H]1O[C@H](CO)[C@@H](O)[C@H](O)[C@H]1O)c1cc(O)c(O)c(O)c1 | Genome polyprotein (Coxsackievirus B3 (strain Nancy)) | 23.6% |
| O=C(OC[C@H]1O[C@@H](O)[C@H](OC(=O)c2cc(O)c(O)c(O)c2)[C@@H](OC(=O)c2cc(O)c(O)c(O)c2)[C@@H]1OC(=O)c1cc(O)c(O)c(O)c1)c1cc(O)c(O)c(O)c1 | Genome polyprotein (Coxsackievirus B3 (strain Nancy)) | 100% |
| COc1cc2oc3cc(O)c(O)cc3c(=O)c2c(O)c1[C@@H]1O[C@H](CO)[C@@H](O)[C@H](O)[C@H]1O | Genome polyprotein (Coxsackievirus B3 (strain Nancy)) | 13.3% |
| COc1cc(O)c(C(=O)c2ccc(O)cc2)c(O)c1[C@@H]1O[C@H](CO)[C@@H](O)[C@H](O)[C@H]1O | Genome polyprotein (Coxsackievirus B3 (strain Nancy)) | 17.5% |
| COc1cc(O)c(C(=O)c2ccc(O)cc2)c(O[C@@H]2O[C@H](CO)[C@@H](O)[C@H](O)[C@H]2O)c1 | Genome polyprotein (Coxsackievirus B3 (strain Nancy)) | inactive |

Provide inhibition for all items below, preserving their order.
1. COc1cc(O)c(C(=O)c2ccc(O)cc2)c(O)c1[C@@H]1O[C@H](CO)[C@@H](O)[C@H](O)[C@H]1OC(=O)c1cc(O)c(O)c(O)c1
2. O=c1c2cc(O)c(O)cc2oc2cc(O)c([C@@H]3O[C@H](CO)[C@@H](O)[C@H](O)[C@H]3O)c(O)c12

1. 53.8%
2. 21.4%

Provide inhibition for all items below, preserving their order.
1. O=c1c2cc(O)c(O)cc2oc2c(-c3c(O)c([C@@H]4O[C@H](CO)[C@@H](O)[C@H](O)[C@H]4O)c(O)c4c(=O)c5cc(O)c(O)cc5oc34)c(O)c([C@@H]3O[C@H](CO)[C@@H](O)[C@H](O)[C@H]3O)c(O)c12
2. O=C(O)c1cc(O)c(O)c(O)c1

1: 46.1%; 2: inactive

Provide inhibition for all items below, preserving their order.
1. COc1cc(O)c(C(=O)c2ccc(O)cc2)c(O)c1[C@@H]1O[C@H](CO)[C@@H](O)[C@H](O)[C@H]1OC(=O)c1ccc(O)cc1
2. O=C(O[C@@H]1C[C@](O)(C(=O)O)C[C@@H](O)[C@H]1O)c1cc(O)c(O)c(O)c1

27.2%
29.8%

Provide inhibition for all items below, preserving their order.
1. O=C(OC(=O)c1ccc(O)c(O)c1)c1ccc(O)c(O)c1
2. O=C(OC[C@H]1O[C@@H](OC(=O)c2cc(O)c(O)c(O)c2)[C@H](OC(=O)c2cc(O)c(O)c(O)c2)[C@@H](OC(=O)c2cc(O)c(O)c(O)c2)[C@@H]1OC(=O)c1cc(O)c(O)c(O)c1)c1cc(O)c(O)c(O)c1 [PENTAGALLOYL GLUCOSE]

1. inactive
2. 100%
